From: paper PMC3044235

- Format: in vivo, human
- experimentalParameters: human, urine, po
Reported AUC(0-inf) values for a set of molecules
Number in µg·h/mL, nothing else.

Ask: Which AUC(0-inf) is reported for this molecule? O=c1c(-c2ccc(O)cc2)coc2cc(O)ccc12 [DA, daidzein]
Reply: 7730

Ask: Further, for C[C@@H]1O[C@@H](OC[C@H]2O[C@@H](Oc3c(-c4ccc(O)c(O)c4)oc4cc(O)cc(O)c4c3=O)[C@H](O)[C@@H](O)[C@@H]2O)[C@H](O)[C@H](O)[C@H]1O [RUT, rutin] ?
Reply: 12800

====

- Format: in vivo, human
- experimentalParameters: healthy volunteers, diet rich in fruits, vegetables, tea, and wine
measuredQuantity: mean concentration in urine (ng/mL)
Number in ng/mL, nothing else.

> print(dat)
                                   molecule  datavalue
1  C[C@@H]1O[C@@H](Oc2c(-c3ccc(O)c(O)c3)oc3cc(O)cc(O)c3c2=O)[C@H](O)[C@H](O)[C@H]1O      73.57

Ask: Which mean concentration in urine is reported for this molecule? Oc1cc(O)c2c(c1)OC(c1ccc(O)c(O)c1)C(O)C2 (racemic) [(±)-CA, (±)-catechin]
Reply: 5427.34

Ask: Further, for Oc1cc(O)c2c(c1)O[C@H](c1ccc(O)c(O)c1)[C@H](O)C2 [(−)-EC, (−)-epicatechin] ?
Reply: 2724.26
